Source listed as ChEMBL document CHEMBL1149315.

- subject-of-test: Substance-K receptor (Oryctolagus cuniculus) (UniProt P79218)
- Sequence (P79218 whole entry): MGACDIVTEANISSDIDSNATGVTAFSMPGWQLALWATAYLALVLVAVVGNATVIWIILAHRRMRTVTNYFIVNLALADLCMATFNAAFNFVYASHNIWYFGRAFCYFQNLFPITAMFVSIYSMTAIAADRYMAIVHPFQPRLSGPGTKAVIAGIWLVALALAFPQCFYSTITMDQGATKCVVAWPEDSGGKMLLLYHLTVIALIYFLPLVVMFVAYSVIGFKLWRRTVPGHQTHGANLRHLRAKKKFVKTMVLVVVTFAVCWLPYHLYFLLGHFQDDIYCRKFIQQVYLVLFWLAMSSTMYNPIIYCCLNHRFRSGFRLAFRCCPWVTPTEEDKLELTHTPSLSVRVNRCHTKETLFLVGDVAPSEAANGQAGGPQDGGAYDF
- assay-procedure: Antagonist activity at NK2 receptor in rabbit pulmonary artery assessed as effect on neurokinin A-induced mechanical activity
- Type: functional
- measurement-context: filed as antagonist
reported-metric: pKb
Just the number, please, no unit attached.

O=C1C[C@H](NC2CCOCC2)C(=O)NC[C@@H](Cc2ccccc2)NC(=O)[C@H](Cc2ccccc2)NC(=O)[C@H](Cc2c[nH]c3ccccc23)N1 :: 8.6
N[C@H]1CC(=O)N[C@@H](Cc2c[nH]c3ccccc23)C(=O)N[C@@H](Cc2ccccc2)C(=O)N[C@H](Cc2ccccc2)CNC1=O :: 7.5
N[C@H]1CC(=O)N[C@@H](Cc2c[nH]c3ccccc23)C(=O)N[C@@H](Cc2ccccc2)C(=O)N[C@H](Cc2ccc(Cl)c(Cl)c2)CNC1=O :: 8.6
O=C1C[C@@H](N2CCNCC2)C(=O)NC[C@@H](Cc2ccccc2)NC(=O)[C@H](Cc2ccccc2)NC(=O)[C@H](Cc2c[nH]c3ccccc23)N1 :: 7.7
O=C1CCC(=O)N[C@@H](Cc2c[nH]c3ccccc23)C(=O)N[C@@H](Cc2ccccc2)C(=O)N[C@H](Cc2ccc(Cl)c(Cl)c2)CN1 :: 8.1

Now consider the entry below.
Q. Any idea what pKb was measured for O=C1C[C@@H](N2CCOCC2)C(=O)NC[C@@H](Cc2ccc(Cl)c(Cl)c2)NC(=O)[C@H](Cc2ccccc2)NC(=O)[C@H](Cc2c[nH]c3ccccc23)N1 ?
A. 8.4

----------
- subject-of-test: Substance-K receptor (Rattus norvegicus)
- Sequence (whole entry): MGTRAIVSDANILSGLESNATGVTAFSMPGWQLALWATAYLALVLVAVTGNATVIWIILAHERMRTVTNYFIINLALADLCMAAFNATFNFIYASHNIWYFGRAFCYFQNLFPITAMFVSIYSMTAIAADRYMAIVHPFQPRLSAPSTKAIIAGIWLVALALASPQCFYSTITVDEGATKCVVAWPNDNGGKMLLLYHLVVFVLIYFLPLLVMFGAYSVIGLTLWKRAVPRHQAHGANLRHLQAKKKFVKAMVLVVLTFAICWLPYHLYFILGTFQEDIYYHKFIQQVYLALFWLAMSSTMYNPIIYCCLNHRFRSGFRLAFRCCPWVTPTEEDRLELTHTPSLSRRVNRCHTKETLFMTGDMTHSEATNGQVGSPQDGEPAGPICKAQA
- assay-procedure: Antagonist activity at NK2 receptor in rat urinary bladder assessed as effect on beta-Ala8]NKA(4-10)-induced mechanical activity
- Type: functional
- measurement-context: filed as antagonist
# pKb values compiled below
Just the number, please, no unit attached.

Consider the following illustrative entries.
CN(C1CCOCC1)[C@@H]1CC(=O)N[C@@H](Cc2c[nH]c3ccccc23)C(=O)N[C@@H](Cc2ccccc2)C(=O)N[C@H](Cc2ccccc2)CNC1=O :: 8.8
O=C1C[C@@H](N2CCOCC2)C(=O)NC[C@@H](Cc2ccccc2)NC(=O)[C@H](Cc2ccccc2)NC(=O)[C@H](Cc2c[nH]c3ccccc23)N1 :: 9.2
NC1CCN([C@@H]2CC(=O)N[C@@H](Cc3c[nH]c4ccccc34)C(=O)N[C@@H](Cc3ccccc3)C(=O)N[C@H](Cc3ccccc3)CNC2=O)CC1 :: 8.5
O=C1C[C@@H](NC[C@H](O)[C@H](O)[C@@H](O[C@H]2O[C@H](CO)[C@@H](O[C@@H]3O[C@@H](CO)[C@H](O)[C@@H](O)[C@@H]3O)[C@H](O)[C@H]2O)[C@H](O)CO)C(=O)NC[C@@H](Cc2ccccc2)NC(=O)[C@H](Cc2ccccc2)NC(=O)[C@H](Cc2c[nH]c3ccccc23)N1 :: 8.5
O=C1C[C@@H](NC(=O)CN2CCC(N3CCCCC3)CC2)C(=O)NC[C@@H](Cc2ccccc2)NC(=O)[C@H](Cc2ccccc2)NC(=O)[C@H](Cc2c[nH]c3ccccc23)N1 :: 9.2

Q. Any idea what pKb was measured for NS(=O)(=O)N1CCN(CC(=O)N[C@@H]2CC(=O)N[C@@H](Cc3c[nH]c4ccccc34)C(=O)N[C@@H](Cc3ccccc3)C(=O)N[C@H](Cc3ccccc3)CNC2=O)CC1 ?
A. 9.5

Q. Also O=C1C[C@@H](N2CCOCC2)C(=O)NC[C@@H](Cc2ccc(Cl)c(Cl)c2)NC(=O)[C@H](Cc2ccccc2)NC(=O)[C@H](Cc2c[nH]c3ccccc23)N1 , if possible.
A. 8

Q. Also CC(=O)N1CCN([C@@H]2CC(=O)N[C@@H](Cc3c[nH]c4ccccc34)C(=O)N[C@@H](Cc3ccccc3)C(=O)N[C@H](Cc3ccccc3)CNC2=O)CC1 , if possible.
A. 9.6

Q. Also O=C1C[C@@H](NC(=O)CN2CC[S+]([O-])CC2)C(=O)NC[C@@H](Cc2ccccc2)NC(=O)[C@H](Cc2ccccc2)NC(=O)[C@H](Cc2c[nH]c3ccccc23)N1 , if possible.
A. 8.7

Q. Also O=C1C[C@@H](NC2CCOCC2)C(=O)NC[C@@H](Cc2ccccc2)NC(=O)[C@H](Cc2ccccc2)NC(=O)[C@H](Cc2c[nH]c3ccccc23)N1 , if possible.
A. 9.1

Q. Also O=C1C[C@@H](N2CCC(N3CCCCC3)CC2)C(=O)NC[C@@H](Cc2ccccc2)NC(=O)[C@H](Cc2ccccc2)NC(=O)[C@H](Cc2c[nH]c3ccccc23)N1 , if possible.
A. 8.9
